System: Silybum
testMethodNotes: Herbicidal effect on potted weeds, plant development score
Type: in vivo
conditionDetails: post-emergence, soil application 1 mg/pot; scale 0 (dead plants) to 5 (healthy, as Control)
Label key: condition met means Average Herbicidal Effect, Silybum under 2; condition not met means Average Herbicidal Effect, Silybum of 2 or more.

Take a look at these entries with their results.
In [3]: df
Out[3]:
                                   compound              class
0                      O=C(O)Cc1cc(Cl)sc1Cl  condition not met
1  CCOC(=O)Cc1cccc(Br)n1 [compound 6635, ethyl 2-(6-bromopyridin-2-yl)acetate]  condition not met
2         O=C([O-])C(F)(F)c1csc(Cl)n1.[Na+]      condition met
3                O=C(O)C(F)(F)c1nc(Cl)sc1Cl      condition met

Input line: State whether 2 exceeds Average Herbicidal Effect, Silybum recorded for CCOC(=O)C(F)(F)c1cc(Cl)sc1Cl .
Output line: condition not met

###

Tested on: Seeds of Lettuce R. (Super-Jericho)
testMethodNotes: Filter paper bioassay with lettuce seeds: germination and early plant development, Minimal Effective Concentration (MEC)
Format: in vivo
conditionDetails: lettuce seeds on filter paper, 0 to 1 mmol/l, visually assessed after 6 days
recordedMetric: Score (activity score of Minimal Effective Concentration, MEC)

In [3]: df
Out[3]:
                                   compound     endpointresult
0  O=C(O)C1Cc2nnsc2S1 (stereo not shown) [compound 5750]  Moderate (0.1 mM)
1  O=C(O)C(F)(F)c1cccc(-c2ccc(C(F)(F)F)cc2F)n1 [compound 6659]  Moderate (0.1 mM)
2           NCCc1cc(Cl)sc1Cl [compound 584]           moderate
3  NC(=O)Cc1ccsc1 [compound 591, 2-(thiophen-3-yl)acetamide]           moderate
4  Nc1nc(C(F)(F)c2ccccc2)cs1 [compound 5697]   Strong (0.01 mM)

Input line: // lookup Score (activity score of Minimal Effective Concentration, MEC) for O=C(O)C(F)(F)c1ccc(C(F)(F)F)c(Br)n1 [compound 6682]
Output line: Strong (0.01 mM)

###

Test system: Seeds of Lettuce R. (Super-Jericho)
testMethodNotes: Filter paper bioassay with lettuce seeds: germination and early plant development, Minimal Effective Concentration (MEC)
Assay type: in vivo
conditionDetails: lettuce seeds on filter paper, 0 to 1 mmol/l, visually assessed after 6 days
recordedMetric: Score (activity score of Minimal Effective Concentration, MEC)

>>> df
                                   molecule     endpointresult
0  CCOC(=O)Cc1cccc(Br)n1 [compound 6635, ethyl 2-(6-bromopyridin-2-yl)acetate]  Moderate (0.1 mM)
1        CONCCc1cc(Cl)sc1Cl [compound 5670]  Moderate (0.1 mM)
2  NC(=O)Cc1cc(Cl)sc1Cl [compound 5609, 2-(2,5-dichlorothiophen-3-yl)acetamide]   Strong (0.01 mM)
3  Cc1sc(C(F)(F)F)nc1C(F)(F)C(=O)O [compound 5717]   Strong (0.01 mM)

###

Test system: Seeds of Lettuce R. (Super-Jericho)
testMethodNotes: Filter paper bioassay with lettuce seeds: germination and early plant development, Minimal Effective Concentration (MEC)
Type: in vivo
conditionDetails: lettuce seeds on filter paper, 0 to 1 mmol/l, visually assessed after 6 days
Description: Materials: Seeds of Lettuce R. (Super-Jericho, non-sterilized) were obtained from Ben Shahar Moshe Ltd., 99% purity. The test compounds listed in the Table 2 below were synthetized de novo or purchased from different vendors. […] The development of plants' radicle and shoots were visually assessed 6 days after the beginning of the test to determine Minimal Effective Concentration (MEC) of a test material. […]
recordedMetric: Score (activity score of Minimal Effective Concentration, MEC)

>>> df
                                   molecule                             testedon     endpointresult
0  NCCCc1ccnc(Br)c1 [compound 6649, 3-(2-bromopyridin-4-yl)propan-1-amine]  Seeds of Lettuce R. (Super-Jericho)  Moderate (0.1 mM)
1  CC(=O)C1CN(CCc2cc(Cl)sc2Cl)CCC1=O (centres unmarked) [compound 5743]  Seeds of Lettuce R. (Super-Jericho)  Moderate (0.1 mM)
2  CCOC(=O)C(Br)c1nc(Br)sc1C (centres unmarked) [compound 5662]  Seeds of Lettuce R. (Super-Jericho)  Moderate (0.1 mM)
